Biological target: fYF, fluorescently labelled H14 foldamer YF
Experiment: fluorescence polarisation; direct FP: S100 protein diluted in 50 nM labeled foldamer, 20 mM HEPES pH 7.5, 150 mM NaCl, 1 mM CaCl2, 0.5 mM TCEP, 0.01% Tween20; quadratic fit (ProFit); detection threshold Kd 1 mM
Overview of recorded Kd for various binders

[
  {
    "binder": "S100A11 (natural protein) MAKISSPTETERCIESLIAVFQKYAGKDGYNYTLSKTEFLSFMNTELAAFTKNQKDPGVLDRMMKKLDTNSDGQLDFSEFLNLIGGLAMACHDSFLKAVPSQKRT",
    "Kd": "> 1000 µM"
  },
  {
    "binder": "S100A13 (natural protein) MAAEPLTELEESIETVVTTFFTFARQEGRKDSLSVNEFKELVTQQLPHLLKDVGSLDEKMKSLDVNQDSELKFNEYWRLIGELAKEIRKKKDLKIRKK",
    "Kd": "> 1000 µM"
  },
  {
    "binder": "S100A16 (natural protein) MSDCYTELEKAVIVLVENFYKYVSKYSLVKNKISKSSFREMLQKELNHMLSDTGNRKAADKLIQNLDANHDGRISFDEYWTLIGGITGPIAKLIHEQEQQSSS",
    "Kd": "> 1000 µM"
  },
  {
    "binder": "S100B (natural protein) MSELEKAMVALIDVFHQYSGREGDKHKLKKSELKELINNELSHFLEEIKEQEVVDKVMETLDNDGDGECDFQEFMAFVAMVTTACHEFFEHE",
    "Kd": "28 µM"
  }
]
